- System: UT-SCC-40
- Method notes: relative IC50 (midpoint of the fitted curve; maximal inhibition may be below 50%); higher = less potent
- Run parameters: culture condition: on top of Matrigel; treatment time: 3 days
Attribute: relative IC50
Lab book: enter the figure in nM, no units written.

Consider the following illustrative entries.
- Cc1c(CN2CCN(C(=O)[C@H](C)O)CC2)sc2c(N3CCOCC3)nc(-c3cnc(N)nc3)nc12: 1520
- COc1ncc(-c2ccc3nccc(-c4ccnnc4)c3c2)cc1NS(=O)(=O)c1ccc(F)cc1F: 5.3
- Cn1cnc2c(F)c(Nc3ccc(Br)cc3Cl)c(C(=O)NOCCO)cc21: 61
- COc1cc(F)c(F)c(Nc2ccc(I)cc2F)c1NS(=O)(=O)C1(C[C@H](O)CO)CC1: 33.5
- O=C(NC[C@H](O)CO)c1ccncc1Nc1ccc(I)cc1F: 30.1
- CO[C@H]1C[C@@H]2CC[C@@H](C)[C@@](O)(O2)C(=O)C(=O)N2CCCC[C@H]2C(=O)O[C@H]([C@H](C)C[C@@H]2CC[C@@H](OC(=O)C(C)(CO)CO)[C@H](OC)C2)CC(=O)[C@H](C)/C=C(\C)[C@@H](O)[C@@H](OC)C(=O)[C@H](C)C[C@H](C)/C=C/C=C/C=C/1C: 0.896

// relative IC50 lookup, key: `Cn1c(=O)c(F)c(Nc2ccc(I)cc2F)c2c(=O)n(C[C@@H](O)CO)cnc21` 4.29

----------
- System: UT-SCC-44
- Method notes: drug sensitivity score (DSS); higher = more sensitive; extreme values may be limits of the assay
- Run parameters: culture condition: plastic 2D (no matrix); treatment time: 3 days
Attribute: drug sensitivity score
Lab book: enter the figure in DSS, no units written.

Consider the following illustrative entries.
• O=C(NC[C@H](O)CO)c1ccncc1Nc1ccc(I)cc1F [Pimasertib] = 16.4
• CO[C@H]1C[C@@H]2CC[C@@H](C)[C@@](O)(O2)C(=O)C(=O)N2CCCC[C@H]2C(=O)O[C@H]([C@H](C)C[C@@H]2CC[C@@H](OC(=O)C(C)(CO)CO)[C@H](OC)C2)CC(=O)[C@H](C)/C=C(\C)[C@@H](O)[C@@H](OC)C(=O)[C@H](C)C[C@H](C)/C=C/C=C/C=C/1C [Temsirolimus] = 7.9
• CO[C@H]1C[C@@H]2CC[C@@H](C)[C@@](O)(O2)C(=O)C(=O)N2CCCC[C@H]2C(=O)O[C@H]([C@H](C)C[C@@H]2CC[C@@H](OP(C)(C)=O)[C@H](OC)C2)CC(=O)[C@H](C)/C=C(\C)[C@@H](O)[C@@H](OC)C(=O)[C@H](C)C[C@H](C)/C=C/C=C/C=C/1C [Ridaforolimus] = 9.63

Proceeding to the next compound to report its drug sensitivity score.
Recall the recorded drug sensitivity score for Cn1cnc2c(F)c(Nc3ccc(Br)cc3Cl)c(C(=O)NOCCO)cc21 [Selumetinib] with UT-SCC-44 and state it. 7.8

----------
- Tested on: UT-SCC-44
- Method notes: drug sensitivity score (DSS); higher = more sensitive; extreme values may be limits of the assay
- Run parameters: culture condition: plastic 2D (no matrix); treatment time: 3 days
Quantity: drug sensitivity score (DSS)
Lab book: enter the figure in DSS, no units written.

- C=CC(=O)Nc1cc2c(Nc3ccc(F)c(Cl)c3)ncnc2cc1OCCCN1CCOCC1: 7.63

// drug sensitivity score lookup, key: `CO[C@H]1C[C@@H]2CC[C@@H](C)[C@@](O)(O2)C(=O)C(=O)N2CCCC[C@H]2C(=O)O[C@H]([C@H](C)C[C@@H]2CC[C@@H](O)[C@H](OC)C2)CC(=O)[C@H](C)/C=C(\C)[C@@H](O)[C@@H](OC)C(=O)[C@H](C)C[C@H](C)/C=C/C=C/C=C/1C` 15

// drug sensitivity score lookup, key: `COc1cc2ncnc(Nc3ccc(F)c(Cl)c3)c2cc1OCCCN1CCOCC1` 0.167

// drug sensitivity score lookup, key: `Cn1cnc2c(F)c(Nc3ccc(Br)cc3F)c(C(=O)NOCCO)cc21` 7.77

----------
- System: UT-SCC-42A
- Method notes: drug sensitivity score (DSS); higher = more sensitive; extreme values may be limits of the assay
- Run parameters: culture condition: embedded in Myogel + collagen I; treatment time: 3 days
Quantity: drug sensitivity score (DSS)
Lab book: enter the figure in DSS, no units written.

// drug sensitivity score lookup, key: `CO[C@H]1C[C@@H]2CC[C@@H](C)[C@@](O)(O2)C(=O)C(=O)N2CCCC[C@H]2C(=O)O[C@H]([C@H](C)C[C@@H]2CC[C@@H](OCCO)[C@H](OC)C2)CC(=O)[C@H](C)/C=C(\C)[C@@H](O)[C@@H](OC)C(=O)[C@H](C)C[C@H](C)/C=C/C=C/C=C/1C` 3.87

// drug sensitivity score lookup, key: `COc1cc2ncnc(Nc3ccc(F)c(Cl)c3)c2cc1OCCCN1CCOCC1` 0

// drug sensitivity score lookup, key: `CC(=O)Nc1cccc(-n2c(=O)n(C3CC3)c(=O)c3c(Nc4ccc(I)cc4F)n(C)c(=O)c(C)c32)c1` 2.57

----------
- Test system: UT-SCC-106A
- Method notes: drug sensitivity score (DSS); higher = more sensitive; extreme values may be limits of the assay
- Run parameters: culture condition: embedded in Matrigel; treatment time: 3 days
Quantity: log10 of drug sensitivity score (log10 of the value in DSS)
Record value = log10 of drug sensitivity score given in DSS.

Consider the following illustrative entries.
- C=CC(=O)Nc1cc2c(Nc3ccc(F)c(Cl)c3)ncnc2cc1OCCCN1CCOCC1: 1.20
- Cc1c(CN2CCN(C(=O)[C@H](C)O)CC2)sc2c(N3CCOCC3)nc(-c3cnc(N)nc3)nc12: 1.07
- COc1cc2ncnc(Nc3ccc(F)c(Cl)c3)c2cc1OCCCN1CCOCC1: 0.67
- CO[C@H]1C[C@@H]2CC[C@@H](C)[C@@](O)(O2)C(=O)C(=O)N2CCCC[C@H]2C(=O)O[C@H]([C@H](C)C[C@@H]2CC[C@@H](OCCO)[C@H](OC)C2)CC(=O)[C@H](C)/C=C(\C)[C@@H](O)[C@@H](OC)C(=O)[C@H](C)C[C@H](C)/C=C/C=C/C=C/1C: 0.10
- Cn1cnc2c(F)c(Nc3ccc(Br)cc3F)c(C(=O)NOCCO)cc21: 1.07

// log10 of drug sensitivity score lookup, key: `C#Cc1cccc(Nc2ncnc3cc(OCCOC)c(OCCOC)cc23)c1` 0.16

----------
Attribute: drug sensitivity score
- System: UT-SCC-8
- Method notes: drug sensitivity score (DSS); higher = more sensitive; extreme values may be limits of the assay
- Run parameters: culture condition: plastic 2D (no matrix); treatment time: 3 days
Lab book: enter the figure in DSS, no units written.

Consider the following illustrative entries.
- C#Cc1cccc(Nc2ncnc3cc(OCCOC)c(OCCOC)cc23)c1: 4.2
- Cc1c(CN2CCN(C(=O)[C@H](C)O)CC2)sc2c(N3CCOCC3)nc(-c3cnc(N)nc3)nc12: 9.17
- CO[C@H]1C[C@@H]2CC[C@@H](C)[C@@](O)(O2)C(=O)C(=O)N2CCCC[C@H]2C(=O)O[C@H]([C@H](C)C[C@@H]2CC[C@@H](O)[C@H](OC)C2)CC(=O)[C@H](C)/C=C(\C)[C@@H](O)[C@@H](OC)C(=O)[C@H](C)C[C@H](C)/C=C/C=C/C=C/1C: 12.4

// drug sensitivity score lookup, key: `COc1cc(F)c(F)c(Nc2ccc(I)cc2F)c1NS(=O)(=O)C1(C[C@H](O)CO)CC1` 10.9

// drug sensitivity score lookup, key: `COc1ccc(-c2cc3c(C)nc(N)nc3n([C@H]3CC[C@H](OCCO)CC3)c2=O)cn1` 10.4

// drug sensitivity score lookup, key: `C=CC(=O)Nc1cc2c(Nc3ccc(F)c(Cl)c3)ncnc2cc1OCCCN1CCOCC1` 29

// drug sensitivity score lookup, key: `Cn1c(=O)c(F)c(Nc2ccc(I)cc2F)c2c(=O)n(C[C@@H](O)CO)cnc21` 7.07

----------
Attribute: drug sensitivity score
- System: UT-SCC-44
- Method notes: drug sensitivity score (DSS); higher = more sensitive; extreme values may be limits of the assay
- Run parameters: culture condition: embedded in Matrigel; treatment time: 3 days
Lab book: enter the figure in DSS, no units written.

• CO[C@H]1C[C@@H]2CC[C@@H](C)[C@@](O)(O2)C(=O)C(=O)N2CCCC[C@H]2C(=O)O[C@H]([C@H](C)C[C@@H]2CC[C@@H](OP(C)(C)=O)[C@H](OC)C2)CC(=O)[C@H](C)/C=C(\C)[C@@H](O)[C@@H](OC)C(=O)[C@H](C)C[C@H](C)/C=C/C=C/C=C/1C = 6.7
• Cn1c(=O)c(F)c(Nc2ccc(I)cc2F)c2c(=O)n(C[C@@H](O)CO)cnc21 = 21.6
• C=CC(=O)Nc1cc2c(Nc3ccc(F)c(Cl)c3)ncnc2cc1OCCCN1CCOCC1 = 4

Recall the recorded drug sensitivity score for `O=C(NC[C@H](O)CO)c1ccncc1Nc1ccc(I)cc1F` with UT-SCC-44 and state it. 26.7

Recall the recorded drug sensitivity score for `Cn1cnc2c(F)c(Nc3ccc(Br)cc3F)c(C(=O)NOCCO)cc21` with UT-SCC-44 and state it. 13.9
